- Tested on: Ritonavir-Resistant HIV from Patients
- test-summary: microbe, parasite or virus in culture
- Format: cell-based
- applied-conditions: Human immunodeficiency virus 1, Patient No. 235, Day 167, I54I/V, A71V, V82A. L90L/M
quantity-kind: pEC50
Scale: negative log10 of molar concentration, which is what pEC50 denotes.

Q: Requested read-out pEC50, target or system Ritonavir-Resistant HIV from Patients, entry Cc1cccc(C)c1OCC(=O)N[C@@H](Cc1ccccc1)[C@@H](O)C[C@H](Cc1ccccc1)NC(=O)[C@H](C(C)C)N1CCCNC1=O [Example 2B]
Result: 8.22

Q: Requested read-out pEC50, target or system Ritonavir-Resistant HIV from Patients, entry CC(C)c1nc(CN(C)C(=O)N[C@H](C(=O)N[C@@H](Cc2ccccc2)C[C@H](O)[C@H](Cc2ccccc2)NC(=O)OCc2cncs2)C(C)C)cs1 [Ritonavir]
Result: 7.18

---

- Tested on: Ritonavir-Resistant HIV from Patients
- test-summary: microbe, parasite or virus in culture
- Assay type: cell-based
- applied-conditions: Human immunodeficiency virus 1, Patient No. 313, Day 85, M36M/I, I54I/V, V82S/F/A/T
Below, each entry is listed alongside its reported pEC50.
Scale: negative log10 of molar concentration, which is what pEC50 denotes.

[
  {
    "compound": "CC(C)c1nc(CN(C)C(=O)N[C@H](C(=O)N[C@@H](Cc2ccccc2)C[C@H](O)[C@H](Cc2ccccc2)NC(=O)OCc2cncs2)C(C)C)cs1 [Ritonavir]",
    "pEC50": 6.56
  }
]

Read the next record carefully.
Q: Requested read-out pEC50, target or system Ritonavir-Resistant HIV from Patients, entry Cc1cccc(C)c1OCC(=O)N[C@@H](Cc1ccccc1)[C@@H](O)C[C@H](Cc1ccccc1)NC(=O)[C@H](C(C)C)N1CCCNC1=O [Example 2B]
Result: 7.60

---

- System: HIV Selected In Vitro by the Compound of Example 2B
- test-summary: microbe, parasite or virus in culture
- Assay type: cell-based
- applied-conditions: Human immunodeficiency virus 1, Virus P7
Below, each entry is listed alongside its reported EC50.
Reply with just the number (in nM).

[
  {
    "compound-structure": "Cc1cccc(C)c1OCC(=O)N[C@@H](Cc1ccccc1)[C@@H](O)C[C@H](Cc1ccccc1)NC(=O)[C@H](C(C)C)N1CCCNC1=O",
    "target-entity": "HIV Selected In Vitro by the Compound of Example 2B",
    "units-symbol": "nM",
    "readout-value": 116
  }
]

Q: If you can, please state the reported EC50 value of CC(C)c1nc(CN(C)C(=O)N[C@H](C(=O)N[C@@H](Cc2ccccc2)C[C@H](O)[C@H](Cc2ccccc2)NC(=O)OCc2cncs2)C(C)C)cs1 .
Result: 221

Q: If you can, please state the reported EC50 value of CC(C)(C)NC(=O)[C@@H]1CN(Cc2cccnc2)CCN1C[C@@H](O)C[C@@H](Cc1ccccc1)C(=O)N[C@H]1c2ccccc2C[C@H]1O .
Result: 113

Q: If you can, please state the reported EC50 value of CC(C)(C)NC(=O)[C@@H]1C[C@@H]2CCCC[C@@H]2CN1C[C@@H](O)[C@H](Cc1ccccc1)NC(=O)[C@H](CC(N)=O)NC(=O)c1ccc2ccccc2n1 .
Result: 33
